System: Mycobacterium tuberculosis
Test: Cornell - Phenotypic assay to identify agents that inhibit growth of Mycobacterium tuberculosis
Assay type: functional
Design: scale not given: direction of the effect not stated beside the values
Conditions: 10 mM as filed; unlikely as a test dose
The whole screen tested about 53,000 compounds, of which about 900 (1.7%) showed an effect of 50% or more. The entries come from a sample that favours strong results as a whole.
Returns: string. Value is Condition met if measured Percent Effect is below 10%, and Condition not met if it is greater than or equal to it.

## Input # TODO verify Percent Effect < 10% strictly for this molecule: CSCCC(NC(=O)c1ccco1)C(=O)N(C)Cc1ccsc1 (configuration not stated)
## Output Condition met

## Input # TODO verify Percent Effect < 10% strictly for this molecule: Cc1nc(C)c(C(=O)N2CCc3nnc(C4CCCCN4C)n3CC2)o1 (configuration not stated)
## Output Condition not met

## Input # TODO verify Percent Effect < 10% strictly for this molecule: COc1ccc(CN2CC(=O)N(c3ccc(C)cc3)CC2C)cc1O (configuration not stated)
## Output Condition met

## Input # TODO verify Percent Effect < 10% strictly for this molecule: Cc1nc(C)c(C(=O)N2CCc3nnc(C4CCCN4C)n3CC2)s1 (configuration not stated)
## Output Condition not met

## Input # TODO verify Percent Effect < 10% strictly for this molecule: COc1cc(CN2CC(=O)N(c3ccc(C)cc3)CC2C)cc(OC)c1 (configuration not stated)
## Output Condition not met

New cases:
## Input # TODO verify Percent Effect < 10% strictly for this molecule: O=C(COc1ccc2c(c1)CCC2)N1CCCC1c1ccc[nH]1 (configuration not stated)
## Output Condition not met

## Input # TODO verify Percent Effect < 10% strictly for this molecule: Cc1ncsc1C(=O)N1CCc2nnc(C3CCCCN3C)n2CC1 (configuration not stated)
## Output Condition met

## Input # TODO verify Percent Effect < 10% strictly for this molecule: O=C(COc1ccccc1)N1CCCC1c1ccc[nH]1 (configuration not stated)
## Output Condition not met

## Input # TODO verify Percent Effect < 10% strictly for this molecule: Cc1cc(-c2cnc(N3CCOCC3)nc2-c2cccnc2C)on1
## Output Condition met

## Input # TODO verify Percent Effect < 10% strictly for this molecule: CCOCc1cccc(NC(=O)C2COCCO2)c1 (configuration not stated)
## Output Condition met

## Input # TODO verify Percent Effect < 10% strictly for this molecule: CC(=O)OC1CN(c2nc3c(C(F)(F)F)cccc3s2)C1
## Output Condition met

## Input # TODO verify Percent Effect < 10% strictly for this molecule: Cc1cc(-c2cnc(N3CCC(O)CC3)nc2-c2cccnc2C)on1
## Output Condition met

## Input # TODO verify Percent Effect < 10% strictly for this molecule: O=C(OCc1ccccc1)c1cccc(NC(=O)C2COCCO2)c1 (configuration not stated)
## Output Condition met

## Input # TODO verify Percent Effect < 10% strictly for this molecule: Cn1cnnc1SCc1cc2c(cc1Cl)OCO2
## Output Condition not met

## Input # TODO verify Percent Effect < 10% strictly for this molecule: CS(=O)(=O)c1cccc(OCC(=O)N2CCCC2c2ccc[nH]2)c1 (configuration not stated)
## Output Condition not met

## Input # TODO verify Percent Effect < 10% strictly for this molecule: CC(NC(=O)c1cc(-c2cccc(Cl)c2)no1)C(=O)N1CCCC1 (configuration not stated)
## Output Condition met

## Input # TODO verify Percent Effect < 10% strictly for this molecule: O=C(NCC(O)c1ccoc1)Nc1c(F)cccc1F (configuration not stated)
## Output Condition met

## Input # TODO verify Percent Effect < 10% strictly for this molecule: Cc1nc(C)c(C(=O)N2CCCC2c2nnc3n2CCCCC3)s1 (configuration not stated)
## Output Condition not met

## Input # TODO verify Percent Effect < 10% strictly for this molecule: COc1ccc(Cl)cc1-c1nc(N)nc(N)n1
## Output Condition met

## Input # TODO verify Percent Effect < 10% strictly for this molecule: Cc1ncsc1-c1nnc(C2CCCN2C(=O)Cn2cccn2)o1 (configuration not stated)
## Output Condition met

## Input # TODO verify Percent Effect < 10% strictly for this molecule: COc1ccc(NC(=O)CNc2cccc3c2CCCC3)c(OC)c1
## Output Condition not met

## Input # TODO verify Percent Effect < 10% strictly for this molecule: CN(C)S(=O)(=O)N1CC(c2ccnc(Nc3ccccn3)n2)C1
## Output Condition not met

Sourced from ChEMBL document CHEMBL3988442
